System: Malme-3M
TEST: NCI tumour cell line growth inhibition, 48 h
The source made the active and inactive calls. Rule as the data show it: active = GI50 up to about 1.1 µM and inactive = higher.
MEASUREMENT LABEL: GI50

Dear colleague, I am looking for the recorded GI50 of the following compound: C=C(Cl)[C@@](Cl)(CBr)CC[C@@H](Br)C(C)(C)Cl 21.7 µM (inactive)

Which measured GI50 value corresponds to COC(=O)[C@](NC(=O)OCc1ccccc1)([C@@H](C)Sc1ccc(C)cc1)C(F)(F)F ? 55.7 µM (inactive)

Returns the measured GI50 for the input compound. Input: NC(=O)NC(=O)c1cccc(NC(=O)CCl)c1 5.22 µM (inactive)

Consider the compound CCCCS(=O)(=O)CCC(N)P(=O)(O)O (stereo not given) and give its measured GI50. > 100 µM (inactive)

For the compound shown here, COc1ccc(OC2OC(CO)C(OCc3ccccc3)C(OCc3ccccc3)C2OCc2ccccc2)cc1 (stereo not given) , give the reported GI50. 39.1 µM (inactive)
